system.under.test: p-BTK (C481S) (Homo sapiens (Human), UniProt Q06187, C481S)
Sequence (Q06187 whole entry C481S): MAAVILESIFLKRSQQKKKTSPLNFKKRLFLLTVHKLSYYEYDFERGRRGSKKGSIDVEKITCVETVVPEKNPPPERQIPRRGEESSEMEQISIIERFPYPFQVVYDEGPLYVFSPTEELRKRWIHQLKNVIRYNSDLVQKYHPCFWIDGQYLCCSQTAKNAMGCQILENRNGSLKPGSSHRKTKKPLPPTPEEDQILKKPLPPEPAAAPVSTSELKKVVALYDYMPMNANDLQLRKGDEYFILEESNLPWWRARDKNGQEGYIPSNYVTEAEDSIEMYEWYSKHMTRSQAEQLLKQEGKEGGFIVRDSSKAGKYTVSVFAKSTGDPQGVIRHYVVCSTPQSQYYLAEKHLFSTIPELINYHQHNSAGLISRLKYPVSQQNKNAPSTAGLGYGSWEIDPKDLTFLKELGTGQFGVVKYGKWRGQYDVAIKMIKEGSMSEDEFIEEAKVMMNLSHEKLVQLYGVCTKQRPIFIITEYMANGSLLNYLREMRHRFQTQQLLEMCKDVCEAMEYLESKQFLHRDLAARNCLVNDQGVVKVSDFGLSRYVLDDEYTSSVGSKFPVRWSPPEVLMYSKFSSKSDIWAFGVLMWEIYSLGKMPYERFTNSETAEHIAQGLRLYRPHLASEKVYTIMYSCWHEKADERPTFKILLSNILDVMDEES
experiment: p-BTK cell experiment, HEK293 transfected with C481S-BTK plasmid (P-BTK Y223 sandwich ELISA)
cond: HEK293 cells, compound cultured for two hours
Category | rule: reported IC50 within range, see Low: < 20 nM; Mid: ≥ 20 nM and < 50 nM; High: ≥ 50 nM

Sort CC(=O)N1CC[C@]2(C1)Nc1c(cnc3[nH]cc(C(=O)c4ccc(Oc5ccccc5)cc4Cl)c13)NC2=O (single isomer, unassigned) into one of the categories. High

Band of CC1(C)Nc2c(cnc3[nH]cc(C(=O)c4ccccc4Cl)c23)NC1=O ? Low

For this compound, which bin applies? COCC[C@]1(C)Nc2c(cnc3[nH]cc(C(=O)c4ccc(Oc5ccccc5)cc4Cl)c23)NC1=O High

Lab note: which band did CCOC[C@]1(C)Nc2c(cnc3[nH]cc(C(=O)c4ccc(Oc5ccccc5)cc4Cl)c23)NC1=O (single isomer, unassigned) land in? Mid

Bin this entry: O=C(c1ccccc1Cl)c1c[nH]c2ncc3c(c12)NC1(CCOCC1)C(=O)N3 Low

Which class does COC[C@]1(C)Nc2c(cnc3[nH]cc(C(=O)c4ccc(F)c(F)c4Cl)c23)NC1=O fall in? Low

Determine which band this compound sits in: O=C(c1ccc(Oc2ccccc2)cc1Cl)c1c[nH]c2ncc3c(c12)N[C@]1(CC[C@@H](O)C1)C(=O)N3 (single isomer, unassigned) Low

Band for the recorded IC50 of CN1CCC2(C1)Nc1c(cnc3[nH]cc(C(=O)c4ccc(Oc5ccccc5)cc4F)c13)NC2=O (stereo not drawn) ? Mid

Category lookup for the compound COC[C@@]1(C)Nc2c(cnc3[nH]cc(C(=O)c4ccc(Oc5ccccc5)cc4F)c23)NC1=O (single isomer, unassigned) Mid

Which class does COC[C@]1(C)Nc2c(cnc3[nH]cc(C(=O)c4ccc(Oc5ccccn5)cc4Cl)c23)NC1=O fall in? High

Class (by measured IC50) for O=C(c1ccc(Oc2ccccc2)cc1Cl)c1c[nH]c2ncc3c(c12)N[C@]1(CCCOC1)C(=O)N3 (single isomer, unassigned) Mid

Bin? CC(=O)N1CCC2(C1)Nc1c(cnc3[nH]cc(C(=O)c4ccc(Oc5ccccc5)cc4Cl)c13)NC2=O (stereo not drawn) High
